Data credit: the supplement of paper PMC10567573

B1: EPB41L3 (parent)
chain: GSKFRYSGRTQAQTRRASALIDRP

variants of: B1; test: protein stability index of a GFP-peptide fusion (GPS, HEK-293T) (PSI 1-6); higher = more stable; details: c terminus: a fixed tail appended;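 note: lentivirally expressed fusions sorted by FACS into six bins by GFP to DsRed ratio, PSI derived from sequencing read proportions per bin multiplied by bin number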
Please note: 1 (yes) applies when protein stability index is 3 or greater, and 0 (no) applies otherwise.

sequence_change: T14G
assigned_label: 1 (yes)
//
sequence_change: A12D
assigned_label: 1 (yes)
//
sequence_change: T14L
assigned_label: 0 (no)
//
sequence_change: S7G
assigned_label: 1 (yes)
//
sequence_change: K3A
assigned_label: 0 (no)
//
sequence_change: A17I
assigned_label: 1 (yes)
//
sequence_change: T10W
assigned_label: 0 (no)
//
sequence_change: I21E
assigned_label: 1 (yes)
//
sequence_change: G1I
assigned_label: 0 (no)
//
sequence_change: D22G
assigned_label: 0 (no)
//
sequence_change: Y6A
assigned_label: 1 (yes)
//
sequence_change: F4N
assigned_label: 1 (yes)
//
sequence_change: T14V
assigned_label: 1 (yes)
//
sequence_change: K3T
assigned_label: 0 (no)
//
sequence_change: A17F
assigned_label: 0 (no)
//
sequence_change: F4W
assigned_label: 0 (no)
//
sequence_change: R9G
assigned_label: 1 (yes)
//
sequence_change: G1S
assigned_label: 0 (no)
//
sequence_change: Y6V
assigned_label: 1 (yes)
//
sequence_change: A19T
assigned_label: 1 (yes)
//
sequence_change: R16D
assigned_label: 1 (yes)
//
sequence_change: R23H
assigned_label: 1 (yes)
//
sequence_change: Q11C
assigned_label: 0 (no)
//
sequence_change: Q13R
assigned_label: 1 (yes)
//
sequence_change: S7P
assigned_label: 1 (yes)
//
sequence_change: A17W
assigned_label: 0 (no)
//
sequence_change: Q13W
assigned_label: 0 (no)
//
sequence_change: R23L
assigned_label: 0 (no)
//
sequence_change: S2C
assigned_label: 0 (no)
//
sequence_change: A12E
assigned_label: 1 (yes)
//
sequence_change: I21Y
assigned_label: 0 (no)
//
sequence_change: A19F
assigned_label: 0 (no)
//
sequence_change: F4I
assigned_label: 1 (yes)
//
sequence_change: F4R
assigned_label: 1 (yes)
//
sequence_change: G1Y
assigned_label: 0 (no)
//
sequence_change: R15K
assigned_label: 0 (no)
//
sequence_change: Q11R
assigned_label: 1 (yes)
//
sequence_change: I21V
assigned_label: 1 (yes)
//
sequence_change: K3W
assigned_label: 0 (no)
//
sequence_change: I21P
assigned_label: 0 (no)
//
sequence_change: Q11K
assigned_label: 1 (yes)
//
sequence_change: I21C
assigned_label: 0 (no)
//
sequence_change: I21D
assigned_label: 1 (yes)
//
sequence_change: L20P
assigned_label: 1 (yes)
//
sequence_change: A12G
assigned_label: 1 (yes)
//
sequence_change: F4T
assigned_label: 1 (yes)
//
sequence_change: I21W
assigned_label: 0 (no)
//
sequence_change: R9S
assigned_label: 1 (yes)
//
sequence_change: G1K
assigned_label: 1 (yes)
//
sequence_change: I21M
assigned_label: 1 (yes)
//
sequence_change: Q13G
assigned_label: 1 (yes)
//
sequence_change: A19H
assigned_label: 1 (yes)
//
sequence_change: L20N
assigned_label: 1 (yes)
//
sequence_change: L20Q
assigned_label: 1 (yes)
//
sequence_change: T14K
assigned_label: 1 (yes)
//
sequence_change: R15M
assigned_label: 1 (yes)
//
sequence_change: G8R
assigned_label: 1 (yes)
//
sequence_change: I21N
assigned_label: 1 (yes)
//
sequence_change: F4A
assigned_label: 1 (yes)
//
sequence_change: T14N
assigned_label: 1 (yes)
//
sequence_change: Y6E
assigned_label: 1 (yes)
//
sequence_change: Q11P
assigned_label: 1 (yes)
